experiment: Stability of reduced dyes to autooxidation; conditions: buffer, pH 7.4
This listing pairs molecules with measured half-life.

Some solved entries appear below for comparison.
molecule: CCN1c2cc(N)ccc2-c2ccc(N)cc2C1c1ccccc1 (stereo not drawn) [DHE, dihydroethydium, reference compound]
half-life: 0.0208 days

molecule: CCN1/C(=C/C=C/C=C/C=C/C2N(CC)c3ccccc3C2(C)C)C(C)(C)c2ccccc21 (stereo not drawn) [Hydro-Cy7]
half-life: ~3 days

[in] Item CCN1/C(=C/C=C/C2N(CC)c3ccccc3C2(C)C)C(C)(C)c2ccccc21 (stereo not drawn) [Hydro-Cy3] has what recorded half-life?
[out] ~3 days

###

This listing pairs compounds with measured λem.
experiment: Fluorescence of hydrocyanines before and after reaction with superoxide (KO2); type: physicochemical; conditions: emission wavelength of the corresponding oxidized product

compound: CCN1/C(=C/C=C/C2N(CC)c3ccccc3C2(C)C)C(C)(C)c2ccccc21 (stereo not shown) [Hydro-Cy3]
λem: 560 nm
--
compound: CCN1/C(=C/C=C/C=C/C=C/C2N(CC)c3ccccc3C2(C)C)C(C)(C)c2ccccc21 (stereo not shown) [Hydro-Cy7]
λem: 760 nm
--
compound: CN1/C(=C/C=C/C=C/C2N(C)c3ccc4ccccc4c3C2(C)C)C(C)(C)c2c1ccc1ccccc21 (stereo not shown) [Hydro-IR-676]
λem: 693 nm

API: the following record is the query input.
[in] Item CCN1c2cc(N)ccc2-c2ccc(N)cc2C1c1ccccc1 (stereo not shown) [DHE, dihydroethydium, reference compound] has what recorded λem?
[out] 590 nm

###

This listing pairs compounds with measured λex.
assay: Fluorescence of hydrocyanines before and after reaction with superoxide (KO2); format: physicochemical; conditions: excitation wavelength of the corresponding oxidized product
Expressed in nm, but write only the number.

[in] Item CCN1/C(=C/C=C/C2N(CC)c3ccccc3C2(C)C)C(C)(C)c2ccccc21 (stereo not shown) [Hydro-Cy3] has what recorded λex?
[out] 535

[in] Item CCN1/C(=C/C=C/C=C/C=C/C2N(CC)c3ccccc3C2(C)C)C(C)(C)c2ccccc21 (stereo not shown) [Hydro-Cy7] has what recorded λex?
[out] 735

[in] Item CCN1c2cc(N)ccc2-c2ccc(N)cc2C1c1ccccc1 (stereo not shown) [DHE, dihydroethydium, reference compound] has what recorded λex?
[out] 515

[in] Item CN1/C(=C/C=C/C=C/C2N(C)c3ccc4ccccc4c3C2(C)C)C(C)(C)c2c1ccc1ccccc21 (stereo not shown) [Hydro-IR-676] has what recorded λex?
[out] 675
